- studyTarget: ∆^1-pyrroline-5-carboxylate (P5C) dehydrogenase (PruA) (Mycobacterium tuberculosis, UniProt O50443)
- Sequence (O50443 1-543): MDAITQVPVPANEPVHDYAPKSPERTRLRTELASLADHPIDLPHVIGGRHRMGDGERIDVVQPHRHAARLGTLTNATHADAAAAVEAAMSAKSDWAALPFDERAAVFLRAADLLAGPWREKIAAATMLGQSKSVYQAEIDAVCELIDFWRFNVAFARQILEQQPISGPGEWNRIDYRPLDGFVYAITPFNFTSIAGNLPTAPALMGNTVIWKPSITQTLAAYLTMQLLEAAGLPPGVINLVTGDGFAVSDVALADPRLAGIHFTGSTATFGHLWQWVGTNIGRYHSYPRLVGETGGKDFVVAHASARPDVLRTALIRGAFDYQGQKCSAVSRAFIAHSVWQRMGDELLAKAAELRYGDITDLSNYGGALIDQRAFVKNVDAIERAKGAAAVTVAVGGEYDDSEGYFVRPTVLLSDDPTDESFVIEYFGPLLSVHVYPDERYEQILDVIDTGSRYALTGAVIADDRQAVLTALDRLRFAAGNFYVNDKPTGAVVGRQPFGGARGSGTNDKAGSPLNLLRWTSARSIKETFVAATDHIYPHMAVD
readoutKind: Ki (mM)
Reply numerically in mM, unit not repeated.

The value of Ki measured for the compound "O=C(O)[C@@H]1CCCN1" turned out to be 6.7
